Values compiled from patent US10258634B2.

- experimental-protocol: Plasma level of ciclesonide and C21-C21-desisobutyrylciclesonide (HPLC-MS/MS), 2nd ciclesonide study
- conditions-used: horse, plasma, inhaled, 2700 μg/horse, Ciclesonide concentration (plasma), ciclesonide 2700 μg B (nozzle B) twice daily per inhalation; day 11; 4 h

molecule | concentration at 4 h
CC(C)C(=O)OCC(=O)[C@@]12O[C@H](C3CCCCC3)O[C@@H]1C[C@H]1[C@@H]3CCC4=CC(=O)C=C[C@]4(C)[C@H]3[C@@H](O)C[C@@]12C [ciclesonide] | < 0.5 nM

---

- experimental-protocol: Plasma level of ciclesonide and C21-C21-desisobutyrylciclesonide (HPLC-MS/MS), 2nd ciclesonide study
- conditions-used: horse, plasma, inhaled, 2700 μg/horse, Ciclesonide concentration (plasma), ciclesonide 2700 μg A (nozzle A) twice daily per inhalation; day 1; 10 min

molecule | concentration at 10 min / nM
CC(C)C(=O)OCC(=O)[C@@]12O[C@H](C3CCCCC3)O[C@@H]1C[C@H]1[C@@H]3CCC4=CC(=O)C=C[C@]4(C)[C@H]3[C@@H](O)C[C@@]12C [ciclesonide] | 1.19

---

- experimental-protocol: Plasma level of ciclesonide and C21-C21-desisobutyrylciclesonide (HPLC-MS/MS), 2nd ciclesonide study
- conditions-used: horse, plasma, inhaled, 1687.5 μg/horse, Ciclesonide concentration (plasma), ciclesonide 1687.5 μg (nozzle B) twice daily per inhalation; day 11; 0 min

compound | concentration at 0 min
CC(C)C(=O)OCC(=O)[C@@]12O[C@H](C3CCCCC3)O[C@@H]1C[C@H]1[C@@H]3CCC4=CC(=O)C=C[C@]4(C)[C@H]3[C@@H](O)C[C@@]12C [ciclesonide] | < 0.5 nM

---

- experimental-protocol: Plasma level of ciclesonide and C21-C21-desisobutyrylciclesonide (HPLC-MS/MS), 2nd ciclesonide study
- conditions-used: horse, plasma, inhaled, 1687.5 μg/horse, Ciclesonide concentration (plasma), ciclesonide 1687.5 μg (nozzle B) twice daily per inhalation; day 1; 2 h

molecule | concentration at 2 h
CC(C)C(=O)OCC(=O)[C@@]12O[C@H](C3CCCCC3)O[C@@H]1C[C@H]1[C@@H]3CCC4=CC(=O)C=C[C@]4(C)[C@H]3[C@@H](O)C[C@@]12C [ciclesonide] | < 0.5 nM

---

- experimental-protocol: Plasma level of ciclesonide and C21-C21-desisobutyrylciclesonide (HPLC-MS/MS), 2nd ciclesonide study
- conditions-used: horse, plasma, inhaled, 2700 μg/horse, Ciclesonide concentration (plasma), ciclesonide 2700 μg A (nozzle A) twice daily per inhalation; day 1; 2 h
metric-name: concentration at 2 h

compound | value
CC(C)C(=O)OCC(=O)[C@@]12O[C@H](C3CCCCC3)O[C@@H]1C[C@H]1[C@@H]3CCC4=CC(=O)C=C[C@]4(C)[C@H]3[C@@H](O)C[C@@]12C [ciclesonide] | < 0.5 nM

---

- experimental-protocol: Plasma level of ciclesonide and C21-C21-desisobutyrylciclesonide (HPLC-MS/MS), 2nd ciclesonide study
- conditions-used: horse, plasma, inhaled, 2700 μg/horse, Ciclesonide concentration (plasma), ciclesonide 2700 μg B (nozzle B) twice daily per inhalation; day 1; 1 h
metric-name: concentration at 1 h

molecule | value
CC(C)C(=O)OCC(=O)[C@@]12O[C@H](C3CCCCC3)O[C@@H]1C[C@H]1[C@@H]3CCC4=CC(=O)C=C[C@]4(C)[C@H]3[C@@H](O)C[C@@]12C [ciclesonide] | < 0.5 nM
